# target.of.assay: recombinant JAK2 (amino acids 831-1132) (Homo sapiens (Human))
# Sequence (O60674 831-1132): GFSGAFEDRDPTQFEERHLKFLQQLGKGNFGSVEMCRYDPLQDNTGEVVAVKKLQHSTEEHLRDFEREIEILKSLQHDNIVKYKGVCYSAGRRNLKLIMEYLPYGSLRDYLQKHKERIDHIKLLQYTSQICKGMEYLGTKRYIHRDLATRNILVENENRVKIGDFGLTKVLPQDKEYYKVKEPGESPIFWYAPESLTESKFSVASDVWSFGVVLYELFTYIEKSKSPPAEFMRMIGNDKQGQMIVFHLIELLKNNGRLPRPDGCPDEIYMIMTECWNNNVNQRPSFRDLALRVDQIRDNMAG
# measurement.description: Enzyme inhibition studies, JAK2 (5 mM ATP, Caliper)
# Assay type: biochemical
pIC50: −log10 of the molar value.
measured.endpoint: pIC50

(P) Cc1cnc(Nc2cccc(S(C)(=O)=O)c2F)nc1-c1c[nH]c2c(NC(=O)[C@@H](C)N3CCN(CCO)CC3)cccc12 [Example 1]
(Q) C[C@H](C(=O)Nc1cccc2c(-c3nc(Nc4cccc(S(C)(=O)=O)c4F)ncc3Cl)c[nH]c12)N1CCN(C)CC1 [Example 5]
(R) Cc1cnc(Nc2cccc(S(C)(=O)=O)c2F)nc1-c1c[nH]c2c(NC(=O)[C@@H](C)N3C[C@H](C)N(C)[C@@H](C)C3)cccc12 [Example 7]
Reorder: pIC50, max to min. Reply with the item labels sorted in the order that was asked for.
P, Q, R
